System: PRMT1 (protein arginine N-methyltransferase 1)
Assay: small molecules binding arginine methyltransferase PRMT1 – biochemical, small-molecule microarray, 635 nm fluorescence, primary screen (AID 1088);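 note: binding of Prmt1 protein to compounds spotted on small-molecule microarray slides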
Conditions: higher = more signal
Measured composite z-score values are reported for all entries that follow.
Form: value (number only, do not type unit).

Past entries and their recorded results:
# compound CCOC(=O)C[C@H]1[C@H](OC(=O)Cc2ccc3c(c2)OCO3)[C@@H](NC(=O)c2ccccc2)c2cc(OCCCO)ccc2N1C(=O)c1ccccc1 ; its composite z-score = 0.267

# compound COCCOC(=O)N1C(=O)[C@@]2(c3cc(C#CC4(O)CCCCCC4)ccc31)[C@H](C(=O)NC[C@H](O)c1ccccc1)[C@H]1C(=O)O[C@H](c3ccccc3)[C@H](c3ccccc3)N1[C@@H]2c1ccc(OCCO)cc1 ; its composite z-score = 1.55

# compound CC(C)(C)OC(=O)CC[C@@]1(C(=O)N2CCCCC2)N=C(c2ccc(OCCCO)cc2)O[C@@H]1c1ccccc1CN=[N+]=[N-] ; its composite z-score = 1.54

Next, consider the following compound.
# compound COCC(=C=CC[C@@H](O)c1ccccc1OCCO)C[C@@H](O)c1ccccn1 ; its composite z-score = 1.29

###

Biological target: Pro-neuregulin-1, membrane-bound isoform (Homo sapiens)
Assay: small molecules binding neuregulin-1 protein – biochemical, small-molecule microarray, fluorescence 635/667, psychiatric disease protein project, primary screen (AID 1075);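 note: score combines 667 nm spot fluorescence with signal to noise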
Settings: NRG1 binding, 635 nm fluorescence, higher = more signal
Label Satisfied for high-side composite z-score (at or above 0.7) and Not satisfied for low-side composite z-score (below it).

Field: example entries. Status: answers known.
Decide: is the reported value of composite z-score for COCCOC(=O)N1C(=O)[C@@]2(c3cc(C#CCC(C(=O)OC)C(=O)OC)ccc31)[C@H](c1ccc(OCCO)cc1)N1[C@H](c3ccccc3)[C@H](c3ccccc3)OC(=O)[C@H]1[C@@H]2C(N)=O equal to or greater than 0.7?
Satisfied

Decide: is the reported value of composite z-score for C=CCNC(=O)[C@H]1[C@@H]2C(=O)O[C@@H](c3ccccc3)[C@@H](c3ccccc3)N2[C@@H](c2ccc(OCCO)cc2)[C@]12C(=O)N(C(=O)OCCOC)c1ccc(C#CC3=CCCCC3)cc12 equal to or greater than 0.7?
Satisfied

Decide: is the reported value of composite z-score for C[C@]12C(=O)N(CCCCCO)[C@@H]3C(=O)N(c4ccc(Cl)cc4)CC=CC31O[C@@H]1/C=C\CCCOC(=O)C12 (some centres not stated) equal to or greater than 0.7?
Not satisfied

Decide: is the reported value of composite z-score for COC(=O)c1ccc(OC)c(/C=C\CC(CCc2ccccc2)OC(C)=O)c1 (configuration not stated) equal to or greater than 0.7?
Not satisfied

Decide: is the reported value of composite z-score for C#CCOC(=O)N[C@H](C=CCCCC)c1ccccc1 equal to or greater than 0.7?
Satisfied

Others:
Decide: is the reported value of composite z-score for CC1=C2[C@@H](CCc3ccccc3)OB(O)C[C@@H]2[C@@H]2C(=O)C=CC(=O)[C@@H]2C1 equal to or greater than 0.7?
Not satisfied

###

Tested on: Plasmodium falciparum Sir2 (PF13_0152, Sir2A)
Experiment: Plasmodium falciparum Sir2A binding compounds – biochemical, small-molecule microarray, 635 nm fluorescence, primary screen (AID 1098);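 note: score merges spot fluorescence intensity with its signal-to-noise ratio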
Conditions: fluorescence 635 nm, higher = more signal
quantity-kind: composite z-score
Form: value (number only, do not type unit).

# compound CC(C)CCC[C@@H](C)[C@H]1CC[C@@]2(C)C3=C(CC[C@]12C)[C@@]1(C)CC[C@H](OC(=O)c2ccc(N)cc2)C(C)(C)C1CC3 (stereo partly drawn) ; its composite z-score = 0.347

# compound CC(C)C[C@@H]1NC(=O)[C@@]23C(=O)N[C@@H](Cc4ccccc4)C2[C@H](C)[C@@]2(C)O[C@H]2C3/C=C/C/C=C\CNC(=O)[C@@H]2CCCN2C1=O (stereo partly drawn) ; its composite z-score = 0.324

# compound [N-]=[N+]=NCc1ccccc1[C@H]1OC(c2ccc(OCCCO)cc2)=N[C@@]1(Cc1ccccc1N=[N+]=[N-])C(=O)NCCN1CCOCC1 ; its composite z-score = 0.879

# compound C[N+](C)(C)CCCC[C@@H]1NC(=O)[C@@H]2C[C@H](C(=O)O)[C@H](c3cccc(OCCO)c3)N2C1=O ; its composite z-score = 1.53

# compound CC[C@@H]1[C@@H]2C3C(=O)N(CC)C(=O)C3CC(=O)[C@@H]2[C@H](c2ccc(C)cc2)N1S(=O)(=O)c1ccc(C)cc1 (stereo partly drawn) ; its composite z-score = 0.426

Next, consider the following compound.
# compound NCCCCCCNC(=O)[C@H]1C[C@H]2C(=O)N3CCC[C@H]3C(=O)N2[C@H]1c1ccc(O)cc1 ; its composite z-score = 1.22
